The origin of these recorded values is patent US10640506B2.

TARGET_OR_TEST_SYSTEM: human JAK1 (a.a. 837-1142) (Homo sapiens, UniProt P23458)
Sequence (P23458 849-1154): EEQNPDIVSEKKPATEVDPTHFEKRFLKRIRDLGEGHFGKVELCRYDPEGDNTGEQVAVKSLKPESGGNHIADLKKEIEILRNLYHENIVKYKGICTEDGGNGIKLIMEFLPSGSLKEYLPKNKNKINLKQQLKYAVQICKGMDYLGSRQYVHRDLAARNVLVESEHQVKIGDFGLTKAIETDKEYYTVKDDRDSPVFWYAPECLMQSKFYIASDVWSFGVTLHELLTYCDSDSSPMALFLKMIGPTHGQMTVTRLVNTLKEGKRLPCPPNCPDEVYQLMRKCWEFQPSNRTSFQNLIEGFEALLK
TEST: In vitro JAK kinase assay (HTRF, phosphorylation of biotinylated peptide), JAK1
Assay type: biochemical
CONDITION: Table F; 1 mM ATP
pIC50: −log10 of the molar value.
RESULT_TYPE: pIC50

In the examples that follow, each entry is paired with its recorded pIC50.
molecule=CN(C)Cc1cc(CN2CCN([C@H]3C[C@](CC#N)(n4cc(-c5ncnc6[nH]ccc56)cn4)C3)CC2)cc(C(F)(F)F)c1 target_or_test_system="human JAK1 (a.a. 837-1142) (Homo sapiens, UniProt P23458)" result="< 7.00"
molecule="N#CC[C@]1(n2cc(-c3ncnc4[nH]ccc34)cn2)C[C@H](N2CCC(Oc3cc(CN4CCOC4=O)cc(C(F)(F)F)n3)CC2)C1 (single isomer, unassigned) [Example 165, peak 2]" target_or_test_system="human JAK1 (a.a. 837-1142) (Homo sapiens, UniProt P23458)" result="> 8.00"
molecule=CCCN(C)C(=O)N1CCN([C@H]2C[C@](CC#N)(n3cc(-c4ncnc5[nH]ccc45)cn3)C2)CC1 target_or_test_system="human JAK1 (a.a. 837-1142) (Homo sapiens, UniProt P23458)" result="> 8.00"
molecule=N#CC[C@]1(n2cc(-c3ncnc4[nH]ccc34)cn2)C[C@H](N2CCC(Oc3cc(CNCCO)cc(C(F)(F)F)n3)CC2)C1 target_or_test_system="human JAK1 (a.a. 837-1142) (Homo sapiens, UniProt P23458)" result="> 8.00"
molecule=CC[C@H](NC(=O)N1CCN([C@H]2C[C@](CC#N)(n3cc(-c4ncnc5[nH]ccc45)cn3)C2)CC1)C(F)(F)F target_or_test_system="human JAK1 (a.a. 837-1142) (Homo sapiens, UniProt P23458)" result="> 8.00"
molecule=C[C@H](NC(=O)N1CCN([C@H]2C[C@](CC#N)(n3cc(-c4ncnc5[nH]ccc45)cn3)C2)CC1)C1CC1 target_or_test_system="human JAK1 (a.a. 837-1142) (Homo sapiens, UniProt P23458)" result="> 8.00"

Query: Which pIC50 reading was recorded for the molecule CN(C)Cc1cc(C(=O)N2CCN([C@H]3C[C@@](CC#N)(n4cc(-c5ncnc6[nH]ccc56)cn4)C3)CC2)cc(C(F)(F)F)c1 ?
Reply: 7.60 to 8.00

Query: Input CC(C)(O)c1cc(C(=O)N2CCN([C@H]3C[C@](CC#N)(n4cc(-c5ncnc6[nH]ccc56)cn4)C3)CC2)nc(C(F)(F)F)c1
Reply: > 8.00

Query: Input CC(C)(O)c1cc(OC2CCN([C@H]3C[C@](CC#N)(n4cc(-c5ncnc6[nH]ccc56)cn4)C3)CC2)nc(C(F)(F)F)c1 (single isomer, unassigned)
Reply: > 8.00

Query: Input CC[C@H](C)NC(=O)N1CCN([C@H]2C[C@@](CC#N)(n3cc(-c4ncnc5[nH]ccc45)cn3)C2)CC1
Reply: 7.60 to 8.00

Query: Input CC(C)(CO)NCc1cc(OC2CCN([C@H]3C[C@](CC#N)(n4cc(-c5ncnc6[nH]ccc56)cn4)C3)CC2)nc(C(F)(F)F)c1
Reply: > 8.00

Query: Input CN(C)Cc1cc(CN2CCN([C@H]3C[C@@](CC#N)(n4cc(-c5ncnc6[nH]ccc56)cn4)C3)CC2)cc(C(F)(F)F)c1
Reply: 7.00 to 7.60

Query: Input N#CC[C@]1(n2cc(-c3ncnc4[nH]ccc34)cn2)C[C@H](N2CCC(Oc3cc(CN4CCC[C@@H]4CO)cc(C(F)(F)F)n3)CC2)C1
Reply: > 8.00

Query: Input CNCc1cc(C(=O)N2CCN([C@H]3C[C@](CC#N)(n4cc(-c5ncnc6[nH]ccc56)cn4)C3)CC2)nc(C(F)(F)F)c1
Reply: > 8.00

Query: Input CC(C)N(C)C(=O)N1CCN([C@H]2C[C@](CC#N)(n3cc(-c4ncnc5[nH]ccc45)cn3)C2)CC1
Reply: 7.00 to 7.60

Query: Input N#CC[C@]1(n2cc(-c3ncnc4[nH]ccc34)cn2)C[C@H](N2CCC(Oc3cc(CN4CCC4)nc(C(F)(F)F)n3)CC2)C1
Reply: 7.60 to 8.00

Query: Input CC(C)[C@H](C)NC(=O)N1CCN([C@H]2C[C@](CC#N)(n3cc(-c4ncnc5[nH]ccc45)cn3)C2)CC1
Reply: > 8.00
